tested on: A549; assay: In vitro tumor cell proliferation, A549; format: cell-based, human; conditions: Homo sapiens, A549, A549; many values given with an undefined *; read-out: In vitro Tumor Cell Proliferation (IC50, μM) Lung A549
Counter-ions that a name gives are not always drawn.
Lab note - cut at 0.4 µM for IC50: condition met if strictly below, condition not met if not.

Query: Please check: IC50 for N[C@H]1CC[C@H](Nc2nc(NCC3CCC(CO)CC3)c3ncn(C4CCCC4)c3n2)CC1 (stereo partly shown) [Example 10, dihydrochloride] , strictly under 0.4 µM or not?
Response: condition not met

Query: Please check: IC50 for Cc1ccccc1CN1CCC(Nc2nc(N[C@H]3CC[C@H](N)CC3)nc3c2ncn3C2CCCC2)CC1 , strictly under 0.4 µM or not?
Response: condition met

Query: Please check: IC50 for N[C@H]1CC[C@H](Nc2nc(NC3CCN(CC4CC4)CC3)c3ncn(C4CCCC4)c3n2)CC1 , strictly under 0.4 µM or not?
Response: condition not met

Query: Please check: IC50 for COc1ccc2[nH]cc(CCNc3nc(N[C@H]4CC[C@H](N)CC4)nc4c3ncn4C3CCCC3)c2c1 [Example 9, dihydrochloride] , strictly under 0.4 µM or not?
Response: condition not met

Query: Please check: IC50 for N[C@H]1CC[C@H](Nc2nc(NCc3ccccc3C(F)(F)F)c3ncn(C4CCCC4)c3n2)CC1 [Example 25, dihydrochloride] , strictly under 0.4 µM or not?
Response: condition not met

Query: Please check: IC50 for N[C@H]1CC[C@H](Nc2nc(NC3CCN(Cc4ccc(Cl)cc4Cl)CC3)c3ncn(C4CCCC4)c3n2)CC1 [Example 147-x, trihydrochloride] , strictly under 0.4 µM or not?
Response: condition not met

Query: Please check: IC50 for N[C@H]1CC[C@H](Nc2nc(Nc3ccc(OC(F)(F)F)cc3)c3ncn(C4CCCC4)c3n2)CC1 [Example 5, dihydrochloride] , strictly under 0.4 µM or not?
Response: condition met

Query: Please check: IC50 for N[C@H]1CC[C@H](Nc2nc(NC3CCN(Cc4cccc(Cl)c4)CC3)c3ncn(C4CCCC4)c3n2)CC1 , strictly under 0.4 µM or not?
Response: condition met

Query: Please check: IC50 for COc1cccc(CNc2nc(N[C@H]3CC[C@H](N)CC3)nc3c2ncn3C2CCCC2)c1OC [Example 13, dihydrochloride] , strictly under 0.4 µM or not?
Response: condition not met

Query: Please check: IC50 for N[C@H]1CC[C@H](Nc2nc(NC3CCN(Cc4ccccc4C(F)(F)F)CC3)c3ncn(C4CCCC4)c3n2)CC1 [Example 147-b, trihydrochloride] , strictly under 0.4 µM or not?
Response: condition not met

Query: Please check: IC50 for N[C@H]1CC[C@H](Nc2nc(NNc3ccccc3Cl)c3ncn(C4CCCC4)c3n2)CC1 [Example 2, dihydrochloride] , strictly under 0.4 µM or not?
Response: condition not met

----------
Assign IC50 to each entry below.
Target: cdk2/cyclin E (Homo sapiens)
Construct: made in house; host or cells: insect cells (baculovirus co-infection)
Assay: Cyclin-Dependent Kinase 2 Assay (cdk2/cyclin E, GST-Rb substrate)
Format: biochemical
Settings: recombinant cdk2/cyclin E, 10 μM ATP, 30 min at 30° C., several values in a cell = separate determinations, read-out: CDK-2 Inhibition IC50
Protocol: Substrate: GST-Rb as described above for cdk4/cyclin D1 Assay conditions for cdk2/cyclin E were identical to those for cdk4/cyclin D1 including the substrate. The concentration of recombinant cdk2/cyclin E in the assay was 0.1 μg per 100 μl assay. Incubation was for 30 min at 30° C.
Structures can show the parent of a compound that is named as a salt.
Report only the number, with the unit nM understood.

Query: Indicate the recorded IC50 value for this compound: COCCCNc1nc(N[C@H]2CC[C@H](N)CC2)nc2c1ncn2C1CCCC1 [Example 22, dihydrochloride]
Response: 370

Query: Indicate the recorded IC50 value for this compound: CCN(CC)CCNc1nc(N[C@H]2CC[C@H](N)CC2)nc2c1ncn2C1CCCC1 [Example 6, trihydrochloride]
Response: 690

Query: Indicate the recorded IC50 value for this compound: CCN(CC)CCCNc1nc(N[C@H]2CC[C@H](N)CC2)nc2c1ncn2C1CCCC1 [Example 18, dihydrochloride]
Response: 1000

Query: Indicate the recorded IC50 value for this compound: COc1cccc(CNc2nc(N[C@H]3CC[C@H](N)CC3)nc3c2ncn3C2CCCC2)c1OC [Example 13, dihydrochloride]
Response: 50
